target.system: CHEK2 (human) (UniProt O96017)
Sequence (O96017 whole entry, looked up): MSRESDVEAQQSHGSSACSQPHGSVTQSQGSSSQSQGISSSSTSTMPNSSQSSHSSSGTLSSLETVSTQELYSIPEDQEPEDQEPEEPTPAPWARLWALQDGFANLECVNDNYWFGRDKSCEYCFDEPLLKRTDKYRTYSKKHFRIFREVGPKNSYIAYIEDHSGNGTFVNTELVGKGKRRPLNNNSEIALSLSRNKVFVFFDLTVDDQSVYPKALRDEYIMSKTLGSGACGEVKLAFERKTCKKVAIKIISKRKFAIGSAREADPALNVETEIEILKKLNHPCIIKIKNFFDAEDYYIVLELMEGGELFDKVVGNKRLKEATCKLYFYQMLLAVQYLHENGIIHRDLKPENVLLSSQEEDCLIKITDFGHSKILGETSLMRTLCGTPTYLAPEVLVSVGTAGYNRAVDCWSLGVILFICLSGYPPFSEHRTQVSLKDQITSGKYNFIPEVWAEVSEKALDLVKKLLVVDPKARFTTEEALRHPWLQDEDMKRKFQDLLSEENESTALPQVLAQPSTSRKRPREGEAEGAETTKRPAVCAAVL
assay.method.text: radiometric filter-binding kinase assay, Kinase HotSpot
condition.notes: compound 0.5 µM; ATP 10 µM
observed.property: residual activity (%)
Provide the reading as a plain figure in %.

Below are worked cases with known answers.
>  <compound>
CCN1/C(=C/C(C)=O)Sc2ccc(OC)cc21

>  <observed.property>
residual activity

>  <numeric.value>
104

$$$$
>  <compound>
COc1ccc(-c2cnc3c(-c4ccsc4)cnn3c2)cc1

>  <observed.property>
residual activity

>  <numeric.value>
89.1

$$$$
>  <compound>
COc1cc2nccc(Oc3ccc(NC(=S)NC(=O)c4ccccc4C)cc3)c2cc1OC

>  <observed.property>
residual activity

>  <numeric.value>
67

$$$$

Which residual activity value belongs to O=C1Nc2ccccc2/C1=C\c1c(Cl)[nH]c2ccccc12 ?
99.4

Now this one: O=C(Nc1ccc(Cl)cc1)c1ccccc1NCc1ccncc1
94.5

Cool, now Nc1nc(Nc2ccc(S(N)(=O)=O)cc2)nn1C(=S)Nc1c(F)cccc1F
1.96

Next compound: O=C(NC(NC(=S)Nc1ccc(F)c([N+](=O)[O-])c1)C(Cl)(Cl)Cl)C(c1ccccc1)c1ccccc1 (configuration not stated)
97.6
